Cited source: patent US20240368267A1

target: T1, human IL-6 (human, UniProt P05231 30-212); assay: SPR (Biacore T200), antibody from cell supernatant captured on Protein A, IL-6 flowed over, 37 C
T1 construct: also called interleukin-6
T1 sequence (P05231 30-212 limits assumed): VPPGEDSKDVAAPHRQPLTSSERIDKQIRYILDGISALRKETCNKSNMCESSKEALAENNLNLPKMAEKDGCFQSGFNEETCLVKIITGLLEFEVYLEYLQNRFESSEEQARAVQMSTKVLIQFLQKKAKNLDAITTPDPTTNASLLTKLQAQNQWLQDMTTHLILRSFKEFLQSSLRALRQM
The following binders are shown together with reported koff values.
Field: numeric (s⁻¹). Do not append units.

Reference set, count: 5
binder | attribute.measured | value.unit | assay.value
anti-IL-6 antibody, heavy chain T65D, G66D / light chain WT (antibody, human IgG1, V domains shown, Derived as m2; Engineered human IgG1) VH: EVQLVESGGGLVQPGGSLRLSCAASGFTFSPFAMSWVRQAPGKGLEWVAKISPGGSWTYYSDTVDDRFTFSLDTSKSTAYLQMNSLRAEDTAVYYCARQLWGYYALDIWGQGTLVTVSS VL: DIQLTQSPSSLSASVGDRVTITCSASISVSYMYWYQQKPGKAPKLLIYDMSNLASGVPSRFSGSGSGTDFTLTISSLQPEDFATYYCMQWSGYPYTFGQGTKVEIK | koff | s⁻¹ | 0.000442
anti-IL-6 antibody, heavy chain T63P, G66D / light chain WT (antibody, human IgG1, V domains shown, Derived as m2; Engineered human IgG1) VH: EVQLVESGGGLVQPGGSLRLSCAASGFTFSPFAMSWVRQAPGKGLEWVAKISPGGSWTYYSDPVTDRFTFSLDTSKSTAYLQMNSLRAEDTAVYYCARQLWGYYALDIWGQGTLVTVSS VL: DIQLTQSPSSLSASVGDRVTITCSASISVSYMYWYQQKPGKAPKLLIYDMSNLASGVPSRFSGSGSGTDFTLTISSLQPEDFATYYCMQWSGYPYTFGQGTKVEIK | koff | s⁻¹ | 0.000436
anti-IL-6 antibody, heavy chain S35A, G66D / light chain WT (antibody, human IgG1, V domains shown, Derived as m2; Engineered human IgG1) VH: EVQLVESGGGLVQPGGSLRLSCAASGFTFSPFAMAWVRQAPGKGLEWVAKISPGGSWTYYSDTVTDRFTFSLDTSKSTAYLQMNSLRAEDTAVYYCARQLWGYYALDIWGQGTLVTVSS VL: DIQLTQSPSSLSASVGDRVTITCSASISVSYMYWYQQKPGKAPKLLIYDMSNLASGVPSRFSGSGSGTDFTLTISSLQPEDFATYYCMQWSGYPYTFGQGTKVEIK | koff | s⁻¹ | 0.000494
anti-IL-6 antibody, heavy chain S35E, G66D / light chain WT (antibody, human IgG1, V domains shown, Derived as m2; Engineered human IgG1) VH: EVQLVESGGGLVQPGGSLRLSCAASGFTFSPFAMEWVRQAPGKGLEWVAKISPGGSWTYYSDTVTDRFTFSLDTSKSTAYLQMNSLRAEDTAVYYCARQLWGYYALDIWGQGTLVTVSS VL: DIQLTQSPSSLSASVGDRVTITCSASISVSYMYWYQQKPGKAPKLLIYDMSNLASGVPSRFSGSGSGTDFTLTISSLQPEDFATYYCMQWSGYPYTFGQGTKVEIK | koff | s⁻¹ | 0.000509
anti-IL-6 antibody, heavy chain T65P, G66D / light chain WT (antibody, human IgG1, V domains shown, Derived as m2; Engineered human IgG1) VH: EVQLVESGGGLVQPGGSLRLSCAASGFTFSPFAMSWVRQAPGKGLEWVAKISPGGSWTYYSDTVPDRFTFSLDTSKSTAYLQMNSLRAEDTAVYYCARQLWGYYALDIWGQGTLVTVSS VL: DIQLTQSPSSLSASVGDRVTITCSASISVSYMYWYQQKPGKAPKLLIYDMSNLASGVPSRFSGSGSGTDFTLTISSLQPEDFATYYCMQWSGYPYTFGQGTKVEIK | koff | s⁻¹ | 0.000568

Ask: Look up koff: anti-IL-6 antibody, heavy chain T65G, G66D / light chain WT (antibody, human IgG1, V domains shown, Derived as m2; Engineered human IgG1) VH: EVQLVESGGGLVQPGGSLRLSCAASGFTFSPFAMSWVRQAPGKGLEWVAKISPGGSWTYYSDTVGDRFTFSLDTSKSTAYLQMNSLRAEDTAVYYCARQLWGYYALDIWGQGTLVTVSS VL: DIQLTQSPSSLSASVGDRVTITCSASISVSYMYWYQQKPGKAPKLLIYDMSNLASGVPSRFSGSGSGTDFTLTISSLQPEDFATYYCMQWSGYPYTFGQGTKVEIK
Reply: 0.000218
